experimental system: ClC-7 (Rattus norvegicus, UniProt P51799)
Construct: gene Clcn7; wt rat ClC-7 with C-terminal EGFP fusion; with Ostm1 (mouse)
test protocol: SSM-based electrophysiology on lysosomal membrane fraction of CHO cells, […] NaCl jump
Type: biochemical
stated conditions: read-out: IC50
metric name: IC50 (µM)
I only need the number, in µM, no unit after it.

Prompt: Output measured IC50 for this item: "O=S(=O)(O)c1cc(N=C=S)ccc1C=Cc1ccc(N=C=S)cc1S(=O)(=O)O"
Response: 39

---

experimental system: ClC-7 (Rattus norvegicus)
Construct: gene Clcn7; wt rat ClC-7 with C-terminal EGFP fusion; with Ostm1 (mouse)
Sequence (P51799 1-803): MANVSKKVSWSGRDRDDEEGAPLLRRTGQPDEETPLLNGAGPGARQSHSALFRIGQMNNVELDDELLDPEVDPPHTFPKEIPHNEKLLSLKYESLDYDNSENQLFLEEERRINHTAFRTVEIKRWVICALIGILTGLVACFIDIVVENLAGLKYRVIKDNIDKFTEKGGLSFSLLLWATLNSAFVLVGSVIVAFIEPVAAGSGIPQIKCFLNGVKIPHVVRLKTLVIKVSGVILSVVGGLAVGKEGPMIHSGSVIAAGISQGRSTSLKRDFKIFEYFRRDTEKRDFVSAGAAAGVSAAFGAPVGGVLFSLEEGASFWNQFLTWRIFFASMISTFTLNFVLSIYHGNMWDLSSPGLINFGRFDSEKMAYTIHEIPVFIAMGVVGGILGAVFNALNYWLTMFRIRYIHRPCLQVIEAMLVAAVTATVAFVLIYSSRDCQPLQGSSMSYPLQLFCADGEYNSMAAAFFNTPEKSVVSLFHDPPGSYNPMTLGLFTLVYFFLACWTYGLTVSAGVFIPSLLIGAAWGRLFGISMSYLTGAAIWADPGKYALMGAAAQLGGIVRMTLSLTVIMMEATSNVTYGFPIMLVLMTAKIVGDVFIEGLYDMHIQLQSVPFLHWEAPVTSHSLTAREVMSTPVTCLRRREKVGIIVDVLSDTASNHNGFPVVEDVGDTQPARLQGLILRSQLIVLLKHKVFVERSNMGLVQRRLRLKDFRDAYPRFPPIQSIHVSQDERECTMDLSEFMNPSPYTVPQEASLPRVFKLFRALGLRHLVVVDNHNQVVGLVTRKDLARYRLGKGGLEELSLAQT
Sequence (Q8BGT0 35-338 partner): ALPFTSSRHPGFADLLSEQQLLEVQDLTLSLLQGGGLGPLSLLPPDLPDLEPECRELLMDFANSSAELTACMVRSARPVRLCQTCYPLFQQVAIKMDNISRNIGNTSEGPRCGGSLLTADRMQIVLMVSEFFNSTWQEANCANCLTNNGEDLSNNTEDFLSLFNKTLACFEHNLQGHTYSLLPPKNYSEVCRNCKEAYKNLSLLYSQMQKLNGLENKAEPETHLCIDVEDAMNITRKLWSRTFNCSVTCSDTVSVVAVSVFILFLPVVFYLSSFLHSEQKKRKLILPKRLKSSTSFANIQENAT
test protocol: SSM-based electrophysiology on lysosomal membrane fraction of CHO cells, […] NaCl jump
Format: biochemical
metric name: IC50 (µM)
I only need the number, in µM, no unit after it.

Prompt: Write down measured IC50 (ClC-7 (Rattus norvegicus)) for this compound. O=C(O)c1cc([N+](=O)[O-])ccc1NCCCc1ccccc1 [compound 3]
Response: 156
